meta.source: patent US6750228B1

# study target: MMP-2 (Homo sapiens)
# Construct: made in house; provided by Dr. Gregory Goldberg, Washington University
# Sequence (P08253 110-660): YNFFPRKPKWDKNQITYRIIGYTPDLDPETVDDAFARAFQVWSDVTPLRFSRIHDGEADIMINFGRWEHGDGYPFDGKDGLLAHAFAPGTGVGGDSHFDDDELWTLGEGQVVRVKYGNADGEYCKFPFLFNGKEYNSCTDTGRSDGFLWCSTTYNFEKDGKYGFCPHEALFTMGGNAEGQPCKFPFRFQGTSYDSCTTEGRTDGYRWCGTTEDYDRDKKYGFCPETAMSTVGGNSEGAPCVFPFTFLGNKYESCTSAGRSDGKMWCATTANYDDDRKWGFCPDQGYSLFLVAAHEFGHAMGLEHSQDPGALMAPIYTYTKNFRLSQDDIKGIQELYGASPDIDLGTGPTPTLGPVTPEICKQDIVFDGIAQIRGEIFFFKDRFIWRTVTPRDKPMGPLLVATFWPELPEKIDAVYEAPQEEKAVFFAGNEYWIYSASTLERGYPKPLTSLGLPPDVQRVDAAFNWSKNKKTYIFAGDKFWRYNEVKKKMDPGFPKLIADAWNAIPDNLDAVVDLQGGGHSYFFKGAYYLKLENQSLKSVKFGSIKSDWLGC
# experimental protocol: biochemical
# measurement setup: recombinant human MMP-2, MCA peptide substrate 4 μM, pH 7.5, room temperature; read-out: MMP-2 IC50
# Procedure: The compounds prepared in the manner described in the Examples above were assayed for activity by an in vitro assay. […] Briefly, 4-aminophenylmercuric acetate (APMA) or trypsin-activated MMPs were incubated with various concentrations of the inhibitor compound at room temperature for 5 minutes. […] Inhibition was measured as a reduction in fluorescent intensity as a function of inhibitor concentration, using a Perkin Elmer L550 plate reader. The IC50 values were calculated from those values. […]
pIC50: −log10 of the molar value.
Binary classification by pIC50, with 7 as an inclusive lower bound for 1; all other cases are -1.

molecule	study target	classification
CC(=O)c1ccc(OC2CCN(c3ccc(S(=O)(=O)C4(C(=O)NO)CCOCC4)cc3)CC2)c(Cl)c1 [Example 471]	MMP-2 (Homo sapiens)	-1
O=C(Nc1ccccc1C(F)(F)F)N1CCC(C(=O)NO)(S(=O)(=O)c2ccc(Oc3ccc(OC(F)(F)F)cc3)cc2)CC1 [Example 364]	MMP-2 (Homo sapiens)	1
O=C(NO)C1(S(=O)(=O)c2ccc(N3CCC(OCc4ccc(F)cc4C(F)(F)F)CC3)cc2)CCN(C2CC2)CC1 [Example 414]	MMP-2 (Homo sapiens)	-1
O=C(c1cccc(OC(F)(F)F)c1)C1CCN(c2ccc(S(=O)(=O)C3(C(=O)NO)CCOCC3)cc2)CC1 [Example 725]	MMP-2 (Homo sapiens)	-1
O=C(NO)C1(S(=O)(=O)c2ccc(N3CCC4CCCCC4C3)cc2)CCOCC1 (stereo not drawn) [Example 692]	MMP-2 (Homo sapiens)	1
CCC(C)CCOCc1ccc(COC2CCN(c3ccc(S(=O)(=O)C4(C(=O)NO)CCOCC4)cc3)CC2)cc1 (stereo not drawn) [Example 603]	MMP-2 (Homo sapiens)	-1
CCc1ccc(C(=O)C2CCN(c3ccc(S(=O)(=O)C4(C(=O)NO)CCOCC4)cc3)CC2)cc1 [Example 733]	MMP-2 (Homo sapiens)	-1
COCCN(CCCCC(=O)N1CCC(C(=O)NO)(S(=O)(=O)c2ccc(Oc3ccc(C(F)(F)F)cc3)cc2)CC1)CCOC [Example 342]	MMP-2 (Homo sapiens)	1
CN(C)c1cccc(NC(=O)C2CCN(c3ccc(S(=O)(=O)C4(C(=O)NO)CCOCC4)cc3)CC2)c1 [Example 77]	MMP-2 (Homo sapiens)	-1
O=C(NO)C1(S(=O)(=O)c2ccc(Oc3ccc(C(F)(F)F)cc3)cc2)CCN(c2ncccc2[N+](=O)[O-])CC1 [Example 374]	MMP-2 (Homo sapiens)	1
O=C(NO)C1(S(=O)(=O)c2ccc(N3CCC(Oc4cccc(C(F)(F)F)c4)CC3)cc2)CCOCC1 [Example 620]	MMP-2 (Homo sapiens)	-1
CN1CCCN(C2CCN(c3ccc(S(=O)(=O)C4(C(=O)NO)CCOCC4)cc3)CC2)CC1 [Example 807]	MMP-2 (Homo sapiens)	-1
